- measured.on: 5HT6-human recombinant receptor (Homo sapiens)
- Sequence (P50406 whole entry): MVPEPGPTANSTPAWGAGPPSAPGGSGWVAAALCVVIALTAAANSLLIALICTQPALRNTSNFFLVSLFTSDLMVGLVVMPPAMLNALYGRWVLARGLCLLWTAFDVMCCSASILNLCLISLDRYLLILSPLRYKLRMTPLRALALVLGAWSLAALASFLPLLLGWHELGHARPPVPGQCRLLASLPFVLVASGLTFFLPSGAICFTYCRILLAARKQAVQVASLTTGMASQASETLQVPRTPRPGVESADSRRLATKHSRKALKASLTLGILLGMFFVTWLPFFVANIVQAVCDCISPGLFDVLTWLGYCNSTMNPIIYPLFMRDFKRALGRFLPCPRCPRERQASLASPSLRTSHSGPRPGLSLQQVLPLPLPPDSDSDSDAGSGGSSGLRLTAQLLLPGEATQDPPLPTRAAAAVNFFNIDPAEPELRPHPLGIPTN
- experiment.summary: Binding to serotonin receptor 5-HT6 ([3H]-LSD radioligand)
- applied.conditions: membranes of HEK-293 cells expressing the receptor; [3H]-LSD 2.7 nM; 60 min at 37° C.
readout.type: Ki (nM)
Your answer is read as nM, so omit the unit and give the number.

CN(C)CCn1ncc2ccc(NS(=O)(=O)c3ccc4ccccc4c3)cc21: 72.6
Cc1c(S(=O)(=O)Nc2ccc3[nH]nc(C4CCN(C)CC4)c3c2)sc2ccc(Cl)cc12: 121

Data request: Tell me measured Ki for Cc1c(S(=O)(=O)Nc2ccc3cnn(CCN(C)C)c3c2)sc2ccc(Cl)cc12 please.
Data returned: 16.4

Data request: Fill in reported Ki for this entry: CN(C)CCN1CCc2ccc(NS(=O)(=O)c3c(Cl)nc4sccn34)cc21
Data returned: 15.8
